Structures can show the parent of a compound that is named as a salt.
Reported melting point values follow for various molecules

- molecule: "CCN(CCCc1c[nH]c2ccc(F)cc12)C1COc2c(F)ccc(C(=O)NC)c2C1 (stereo not drawn) (as salt: hydrochloride)"
  melting point: "118 °C (dec.)"
- molecule: "O=C(NC1CCCC1)c1ccc(F)c2c1CC(N(CCCc1c[nH]c3ccc(F)cc13)C1CCC1)CO2 (stereo not drawn) (as salt: hydrochloride)"
  melting point: "133 °C (dec.)"
- molecule: "NC(=O)c1ccc(F)c2c1OCC(N(CCCCc1c[nH]c3ccc(F)cc13)CC1CC1)C2 (stereo not drawn) (as salt: hydrochloride)"
  melting point: "116 °C (dec.)"
